# target of assay: UniProt P35372
# Sequence (P35372 whole entry, species assumed): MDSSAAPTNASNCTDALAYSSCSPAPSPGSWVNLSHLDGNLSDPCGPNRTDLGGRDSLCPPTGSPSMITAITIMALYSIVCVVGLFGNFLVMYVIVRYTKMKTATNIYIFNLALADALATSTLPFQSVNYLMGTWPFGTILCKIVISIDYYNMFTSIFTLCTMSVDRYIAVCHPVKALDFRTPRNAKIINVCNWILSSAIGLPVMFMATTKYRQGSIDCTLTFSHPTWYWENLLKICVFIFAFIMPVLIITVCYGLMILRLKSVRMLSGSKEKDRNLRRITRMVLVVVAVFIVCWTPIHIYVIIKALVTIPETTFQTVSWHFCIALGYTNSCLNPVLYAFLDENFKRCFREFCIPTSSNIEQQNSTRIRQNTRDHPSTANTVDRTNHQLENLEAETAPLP
# experimental protocol: GTPγS functional binding assay (DAMGO-stimulated)
# experimental parameters: mu-opioid receptor expressing membranes, agonist DAMGO 10 nM, 35S-GTPγS binding
measured quantity: IC50

## Input Give a short answer stating reported IC50 for Cc1cc(CNCCC2C3CC4CC(C3)CC2C4)ccc1-c1cccc(C(N)=O)c1 (centres unmarked) .
## Output < 0.1 µM

With those in mind, consider the next compound.
## Input Identify measured IC50 corresponding to NC(=O)c1cccc(-c2ccc(CNCCC3C4CC5CC(C4)CC3C5)cn2)c1 (centres unmarked)
## Output < 0.1 µM
